Cited source: paper PMC6175223

- Assay name: Study A
- Format: in vivo, human
- Setup conditions: male, human, plasma, oral, 4 mg, Vz/F, nonsmokers; geometric mean (geometric CV%)
Outcome measure: Vd/F (L)
The reply should contain only the number, in L.

I am curious: what Vd/F value has been reported for Nc1cccc2c1C(=O)N(C1CCC(=O)NC1=O)C2=O (stereo not shown) [pomalidomide] ?
65.8

====

- Assay name: Study B
- Type: in vivo, human
- Setup conditions: male, human, plasma, oral, 4 mg, Cmax, pomalidomide 4 mg administered alone; geometric mean (geometric CV%)
Outcome measure: Cmax
Value and unit, in that order.

I am curious: what Cmax value has been reported for Nc1cccc2c1C(=O)N(C1CCC(=O)NC1=O)C2=O (stereo not shown) [pomalidomide] ?
49.2 ng/mL
